B1: minF1; the commonest letter at each place (parent)
chain: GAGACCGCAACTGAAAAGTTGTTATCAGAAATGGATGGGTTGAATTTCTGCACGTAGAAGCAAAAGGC

Variants of: B1
measurementProtocol: fraction ligated after 30 min (ligated reads / total reads); higher = more ligase activity
recordedConditions: with F1*subA RNA substrate (template-directed ligation), 42 °C
Use 0.05 as the dividing line for fraction ligated, with the line itself on the YES side and lower values as NO.

Worked examples follow.
[
  {
    "recordSequence": "GAGACCGCAACTGAAAAGTTGTTATCATAAATGGATGGGTTGAATTTCTGCACGTAGAAGCAAAAGGC [G28T]",
    "cat": "YES"
  },
  {
    "recordSequence": "GAGACCGCAACTGAAAAGTTGTTCTCAGAAGTGGATGGGTTGAATTTCTGCACGTAGAAGCAAAAGGC [A24C A31G]",
    "cat": "NO"
  },
  {
    "recordSequence": "GAGACCGCAACTGAAAAGTTGTAATCAAAAATGGATGGGTTGAATTTCTGCACGTAGAAGCAAAAGGC [T23A G28A]",
    "cat": "YES"
  },
  {
    "recordSequence": "GAGACCGCAACTGAAAAGTTGTTATCAAAAATGGATGGGTTAAATTTCTGCACGTAGAAGCAAAAGGC [G28A G42A]",
    "cat": "YES"
  },
  {
    "recordSequence": "GAGACCGCAACTGAAAAGTTGTTAACAGAAAGGGATGGGTTGAATTTCTGCACGTAGAAGCAAAAGGC [T25A T32G]",
    "cat": "NO"
  }
]

Request: Textbook exercise: given the entry GAGACCGCAACTGAAAAGTTGTTATTAGAAACGGATGGGTTGAATTTCTGCACGTAGAAGCAAAAGGC [C26T T32C] , state whether its fraction ligated is greater than or equal to 0.05.
Response: NO

Request: Threshold query (fraction ligated >= 0.05) on GAGACCGCAACTGAAAAGTTGTTATCAGTAATGTATGGGTTGAATTTCTGCACGTAGAAGCAAAAGGC [A29T G34T]
Response: NO

Request: Threshold query (fraction ligated >= 0.05) on GAGACCGCAACTGAAAAGTTGTTATCTGAAATGAATGGGTTGAATTTCTGCACGTAGAAGCAAAAGGC [A27T G34A]
Response: YES

Request: Please tell me: is the variant GAGACCGCAACTGAAAAGTTGTTATCAGAAAAGGATGGGTTGACTTTCTGCACGTAGAAGCAAAAGGC [T32A A44C] at or over 0.05 in terms of fraction ligated?
Response: NO

Request: Could you please find out whether GAGACCGCAACTGAAAAGTTGTTATCCGAAACGGATGGGTTGAATTTCTGCACGTAGAAGCAAAAGGC [A27C T32C] has fraction ligated that meets 0.05 or exceeds it?
Response: NO
